assay: Isocratic point, elution from C18 prep-scale column; type: physicochemical; conditions: elution from C18 column
Bridge positions count the residues as written; N and C are the ends. Square brackets hold non-standard residues; d marks the D form. Triazole bridges read from a SMILES are 1,4-linked. Peptide text beside a SMILES is read from it. * marks the point of attachment. Biotin = O=C1N[C@H]2[C@H](CS[C@H]2CCCCC(=O)*)N1; PEG10 = NCCOCCOCCOCCOCCOCCOCCOCCOCCOCCOCCC(=O)O; Lys(N3) = [N-]=[N+]=NCCCC[C@H](N)C(=O)O; Orn(N3) = [N-]=[N+]=NCCC[C@H](N)C(=O)O; Pra = C#CC[C@H](N)C(=O)O
Output YES for Isocratic point (%) not less than 60%; output NO otherwise.

Solved entries (count: 3):
molecule	group
CC(C)C[C@@H]1NC(=O)[C@@H](NC(=O)CCOCCOCCOCCOCCOCCOCCOCCOCCOCCOCCNC(=O)CCCC[C@@H]2SC[C@@H]3NC(=O)N[C@@H]32)Cc2cn(nn2)CCCC[C@@H](C(N)=O)NC(=O)[C@H](Cc2ccccc2)NC(=O)[C@H](Cc2ccccc2)NC(=O)[C@H](CC(C)C)NC1=O [compound 21] ({Biotin-PEG10}-[Pra]LLFF[Lys(N3)]-NH2; triazole 1-6)	YES
CC(C)C[C@@H]1NC(=O)[C@@H](NC(=O)CCOCCOCCOCCOCCOCCOCCOCCOCCOCCOCCNC(=O)CCCC[C@@H]2SC[C@@H]3NC(=O)N[C@@H]32)Cc2cn(nn2)CCC[C@@H](C(N)=O)NC(=O)[C@H](Cc2ccccc2)NC(=O)[C@H](Cc2ccccc2)NC(=O)[C@H](Cc2ccccc2)NC(=O)[C@H](CC(C)C)NC1=O [compound 10] ({Biotin-PEG10}-[Pra]LLFFF[Orn(N3)]-NH2; triazole 1-7)	YES
C[C@@H]1NC(=O)[C@H](C)NC(=O)[C@@H](NC(=O)CCOCCOCCOCCOCCOCCOCCOCCOCCOCCOCCNC(=O)CCCC[C@@H]2SC[C@@H]3NC(=O)N[C@@H]32)Cc2cn(nn2)CCCC[C@@H](C(N)=O)NC(=O)[C@H](Cc2ccccc2)NC(=O)[C@H](Cc2ccccc2)NC(=O)[C@H](Cc2ccccc2)NC1=O [compound 7] ({Biotin-PEG10}-[Pra]AAFFF[Lys(N3)]-NH2; triazole 1-7)	NO

Field: next molecule
Hi team, for CC(C)C[C@@H]1NC(=O)[C@@H](NC(=O)CCOCCOCCOCCOCCOCCOCCOCCOCCOCCOCCNC(=O)CCCC[C@@H]2SC[C@@H]3NC(=O)N[C@@H]32)CCCCn2cc(nn2)C[C@@H](C(N)=O)NC(=O)[C@H](C)NC(=O)[C@H](Cc2ccccc2)NC(=O)[C@H](Cc2ccccc2)NC(=O)[C@H](CC(C)C)NC1=O [compound 6] ({Biotin-PEG10}-[Lys(N3)]LLFFA[Pra]-NH2; triazole 1-7) , is the recorded Isocratic point (%) at or above 60%?
YES
